System: Hs-578T
Experiment: Antiproliferative activity against human Hs 578T cells after 72 hrs by Cell-Titer Glo assay
Assay type: functional, cell-based
Assay Metric: IC50 (µM)
# value in µM; strip the unit string

Please fill in: IC50 reported for `COc1ccc2c(c1)c(C(=O)Nc1cc(C(=O)OC(C)(C)C)cc(-c3cnn(C)c3)c1F)cn2C(C)=O` = 15.1

====

Target: UniProtKB Q92793
Sequence (Q92793 whole entry): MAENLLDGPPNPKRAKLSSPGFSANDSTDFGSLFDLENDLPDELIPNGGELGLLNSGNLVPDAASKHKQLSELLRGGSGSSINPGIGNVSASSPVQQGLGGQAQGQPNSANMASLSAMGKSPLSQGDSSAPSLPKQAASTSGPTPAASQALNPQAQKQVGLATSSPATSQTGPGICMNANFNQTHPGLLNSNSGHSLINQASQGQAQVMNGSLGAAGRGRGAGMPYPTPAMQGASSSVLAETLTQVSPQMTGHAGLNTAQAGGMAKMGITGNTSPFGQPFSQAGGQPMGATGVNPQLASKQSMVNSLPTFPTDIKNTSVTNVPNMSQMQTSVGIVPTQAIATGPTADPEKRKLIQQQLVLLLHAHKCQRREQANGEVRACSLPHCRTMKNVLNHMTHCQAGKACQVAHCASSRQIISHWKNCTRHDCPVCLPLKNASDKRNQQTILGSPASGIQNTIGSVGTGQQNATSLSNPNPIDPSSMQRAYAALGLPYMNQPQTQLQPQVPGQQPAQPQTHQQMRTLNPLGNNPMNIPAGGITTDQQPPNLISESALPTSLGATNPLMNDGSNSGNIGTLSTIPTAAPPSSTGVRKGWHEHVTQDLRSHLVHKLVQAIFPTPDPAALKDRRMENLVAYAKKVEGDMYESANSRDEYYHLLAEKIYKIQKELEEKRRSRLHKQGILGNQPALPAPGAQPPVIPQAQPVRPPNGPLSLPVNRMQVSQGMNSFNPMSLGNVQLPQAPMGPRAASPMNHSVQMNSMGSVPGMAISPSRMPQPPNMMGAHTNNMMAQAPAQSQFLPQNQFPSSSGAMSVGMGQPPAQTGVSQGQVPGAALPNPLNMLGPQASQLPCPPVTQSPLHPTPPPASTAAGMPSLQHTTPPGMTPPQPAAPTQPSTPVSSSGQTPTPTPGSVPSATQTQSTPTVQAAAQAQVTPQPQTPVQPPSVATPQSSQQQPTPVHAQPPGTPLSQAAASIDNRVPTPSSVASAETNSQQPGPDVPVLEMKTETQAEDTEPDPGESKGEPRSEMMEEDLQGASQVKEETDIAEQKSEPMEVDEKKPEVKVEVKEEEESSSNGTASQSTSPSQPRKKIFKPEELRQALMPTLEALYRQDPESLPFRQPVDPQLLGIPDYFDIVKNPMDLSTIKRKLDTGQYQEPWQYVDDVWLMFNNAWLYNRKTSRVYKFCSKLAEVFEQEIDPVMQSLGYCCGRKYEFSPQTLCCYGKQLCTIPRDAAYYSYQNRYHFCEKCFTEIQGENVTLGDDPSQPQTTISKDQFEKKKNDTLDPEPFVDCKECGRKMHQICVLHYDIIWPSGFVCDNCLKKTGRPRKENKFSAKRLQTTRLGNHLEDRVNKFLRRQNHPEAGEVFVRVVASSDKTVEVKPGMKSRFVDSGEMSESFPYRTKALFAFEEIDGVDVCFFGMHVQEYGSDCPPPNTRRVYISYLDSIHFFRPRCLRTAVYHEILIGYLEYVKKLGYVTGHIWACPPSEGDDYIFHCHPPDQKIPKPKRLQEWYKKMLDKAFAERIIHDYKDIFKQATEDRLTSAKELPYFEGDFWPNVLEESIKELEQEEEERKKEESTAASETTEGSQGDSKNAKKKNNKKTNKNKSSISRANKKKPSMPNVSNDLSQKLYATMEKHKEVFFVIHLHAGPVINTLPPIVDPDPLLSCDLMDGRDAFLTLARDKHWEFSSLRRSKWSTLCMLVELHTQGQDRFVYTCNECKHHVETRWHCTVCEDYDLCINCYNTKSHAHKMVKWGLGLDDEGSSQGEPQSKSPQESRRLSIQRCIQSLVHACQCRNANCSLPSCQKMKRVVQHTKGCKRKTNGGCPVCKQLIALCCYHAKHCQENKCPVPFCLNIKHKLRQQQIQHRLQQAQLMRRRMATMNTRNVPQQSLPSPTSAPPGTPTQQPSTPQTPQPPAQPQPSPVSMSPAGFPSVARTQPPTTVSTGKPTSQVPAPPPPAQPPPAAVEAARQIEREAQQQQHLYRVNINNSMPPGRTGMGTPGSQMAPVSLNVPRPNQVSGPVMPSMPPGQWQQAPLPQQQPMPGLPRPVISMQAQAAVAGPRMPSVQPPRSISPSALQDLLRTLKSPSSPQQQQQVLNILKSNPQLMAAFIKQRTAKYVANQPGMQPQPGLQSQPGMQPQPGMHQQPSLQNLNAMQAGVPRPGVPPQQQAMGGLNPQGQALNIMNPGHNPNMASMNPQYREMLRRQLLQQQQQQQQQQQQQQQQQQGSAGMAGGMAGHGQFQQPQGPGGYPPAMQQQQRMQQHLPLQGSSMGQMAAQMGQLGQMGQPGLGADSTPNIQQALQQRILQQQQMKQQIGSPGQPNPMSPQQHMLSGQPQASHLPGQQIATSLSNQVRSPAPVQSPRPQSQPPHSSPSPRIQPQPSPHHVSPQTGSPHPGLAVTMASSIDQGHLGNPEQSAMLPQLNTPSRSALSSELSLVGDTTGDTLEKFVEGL
IC50 by entry:
# value in µM; strip the unit string

Molecule: CCOc1ccc2c(c1)c(C(=O)Nc1cc(C(=O)O)cc(-c3ccco3)c1)cn2C(C)=O
Target Under Test: UniProtKB Q92793
IC50, µM: 3.89
//
Molecule: CC(=O)n1cc(C(=O)Nc2cc(COC3CCCCO3)cc(C(=O)O)c2)c2ccccc21 (stereo not drawn)
Target Under Test: UniProtKB Q92793
IC50, µM: 1
//
Molecule: CC(=O)n1cc(C(=O)Nc2cc(C(=O)O)ccc2NC2CCCC2)c2ccccc21
Target Under Test: UniProtKB Q92793
IC50, µM: 1.89
//
Molecule: CC(=O)n1cc(C(=O)Nc2cc(Br)cc(C(=O)O)c2)c2ccccc21
Target Under Test: UniProtKB Q92793
IC50, µM: 4.7
//
Molecule: CC(=O)n1cc(C(=O)Nc2cc(C(=O)O)cc(-c3cccc(Cl)c3)c2)c2ccccc21
Target Under Test: UniProtKB Q92793
IC50, µM: 1.44
//
Molecule: CC(=O)c1cn(CCC(=O)O)c2ccccc12
Target Under Test: UniProtKB Q92793
IC50, µM: 16.7
//
Molecule: CC(=O)c1coc2c1cc(O)c1ccccc12
Target Under Test: UniProtKB Q92793
IC50, µM: 41.4
//
Molecule: CC(=O)NCCNC(=O)c1cn(C(C)=O)c2ccccc12
Target Under Test: UniProtKB Q92793
IC50, µM: 33.8
//
Molecule: CCCOc1ccc2c(c1)c(C(=O)Nc1cc(C(=O)O)cc(-c3ccco3)c1)cn2C(C)=O
Target Under Test: UniProtKB Q92793
IC50, µM: 26.2
//
Molecule: CC(=O)n1cc(C(=O)Nc2cc(C(=O)O)ccc2NC2CC2)c2ccccc21
Target Under Test: UniProtKB Q92793
IC50, µM: 4.84

Please fill in: IC50 reported for `CC(=O)c1cccc(NC(=O)c2cn(C(C)=O)c3ccccc23)c1` = 25.4

====

Molecular target: Bromodomain-containing protein 4 (Homo sapiens, UniProt O60885)
Experiment: Inhibition of biotinylated-H4KAc4 binding to human His6-tagged BRD4 bromodomain-1 (N44 to E168 residues) expressed in Escherichia coli BL21(DE3) at 50 uM after 2.5 hrs by luminescence-based AlphaScreen assay relative to control
Label yes when inhibition is at or above 20%; otherwise label no.

Structure As Smiles: CC(=O)c1nn(-c2ccccc2)c2c1CCCC2
Cat: no
--
Structure As Smiles: CC(=O)OCc1cn(C(C)=O)c2ccccc12
Cat: no
--
Structure As Smiles: CC(=O)c1coc2c1cc(O)c1ccccc12
Cat: yes
--
Structure As Smiles: Nc1c(Nc2ccccc2)c2ccccc2oc1=O
Cat: no
--
Structure As Smiles: CC(=O)c1cn(CCC(=O)O)c2ccccc12
Cat: yes

Please turn your attention to the following entry.
Ask | Does `CC(=O)c1nn(-c2ccccc2)c(C)c1C(C)=O` have a reported inhibition of at least 20%?
Reply | no
